// UniProt P06276 pIC50 records
Scale note: pIC50 = -log10(concentration in M).

Known results for compounds:
- C=CC[C@@H]1[C@H](O)[C@@H](OCc2ccccc2)[C@H](O)CN1CCCCCCCC: 5.52
- O[C@@H]1[C@@H](OCc2ccccc2)[C@@H](Cc2cn(Cc3ccccc3)nn2)NC[C@H]1O: 5.15
- O[C@@H]1[C@@H](O)[C@@H](Cc2cn(CCC(c3ccccc3)c3ccccc3)nn2)NC[C@H]1O: 4.82

Pending compound:
input: Lab note: need pIC50 with UniProt P06276 for entry `O=C1N[C@H](COCc2ccccc2)[C@@H](OCc2ccccc2)[C@H](OCc2ccccc2)[C@H]1OCc1ccccc1` , please look it up.
output: 5.40

----------
Biological target: Cholinesterase (Homo sapiens, UniProt P06276)
Sequence (P06276 whole entry): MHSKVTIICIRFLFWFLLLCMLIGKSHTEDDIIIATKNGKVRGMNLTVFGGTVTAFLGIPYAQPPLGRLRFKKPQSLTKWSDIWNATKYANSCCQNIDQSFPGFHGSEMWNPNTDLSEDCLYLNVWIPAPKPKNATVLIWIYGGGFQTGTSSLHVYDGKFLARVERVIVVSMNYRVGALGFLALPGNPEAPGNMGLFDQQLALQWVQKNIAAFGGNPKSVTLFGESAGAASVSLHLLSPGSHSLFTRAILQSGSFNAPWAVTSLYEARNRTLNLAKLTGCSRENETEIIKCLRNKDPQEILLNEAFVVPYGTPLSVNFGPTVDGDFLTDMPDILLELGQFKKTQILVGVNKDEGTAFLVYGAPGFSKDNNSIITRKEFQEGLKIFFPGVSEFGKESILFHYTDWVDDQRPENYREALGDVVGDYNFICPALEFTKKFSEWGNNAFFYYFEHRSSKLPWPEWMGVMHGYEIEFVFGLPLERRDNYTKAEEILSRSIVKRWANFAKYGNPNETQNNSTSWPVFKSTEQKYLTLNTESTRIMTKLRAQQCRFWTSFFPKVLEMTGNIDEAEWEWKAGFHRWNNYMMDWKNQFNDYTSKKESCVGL
pIC50: −log10 of the molar value.
Label 1 when pIC50 is at or above 4; anything below gets -1.

Below, 3 compounds whose answers are already recorded.
* c1ccc(COC[C@H]2NC[C@H](OCc3ccccc3)[C@@H](OCc3ccccc3)[C@@H]2OCc2ccccc2)cc1 | 1
* C=CC[C@@H]1[C@H](O)[C@@H](O)[C@H](O)CN1CCCCCCCC | -1
* O[C@@H]1[C@@H](O)[C@@H](Cc2cn(Cc3cc(OCc4ccccc4)cc(OCc4ccccc4)c3)nn2)NC[C@H]1O | 1

input: Has `CCC[C@@H]1NC[C@@H](O)[C@H](O)[C@H]1O` a recorded pIC50 greater than or equal to 4?
output: -1

input: Has `C=CC[C@H]1NC[C@@H](O)[C@H](OCc2ccccc2)[C@H]1O` a recorded pIC50 greater than or equal to 4?
output: 1

----------
Target: Acetylcholinesterase (Homo sapiens, UniProt P22303)
Sequence (P22303 whole entry): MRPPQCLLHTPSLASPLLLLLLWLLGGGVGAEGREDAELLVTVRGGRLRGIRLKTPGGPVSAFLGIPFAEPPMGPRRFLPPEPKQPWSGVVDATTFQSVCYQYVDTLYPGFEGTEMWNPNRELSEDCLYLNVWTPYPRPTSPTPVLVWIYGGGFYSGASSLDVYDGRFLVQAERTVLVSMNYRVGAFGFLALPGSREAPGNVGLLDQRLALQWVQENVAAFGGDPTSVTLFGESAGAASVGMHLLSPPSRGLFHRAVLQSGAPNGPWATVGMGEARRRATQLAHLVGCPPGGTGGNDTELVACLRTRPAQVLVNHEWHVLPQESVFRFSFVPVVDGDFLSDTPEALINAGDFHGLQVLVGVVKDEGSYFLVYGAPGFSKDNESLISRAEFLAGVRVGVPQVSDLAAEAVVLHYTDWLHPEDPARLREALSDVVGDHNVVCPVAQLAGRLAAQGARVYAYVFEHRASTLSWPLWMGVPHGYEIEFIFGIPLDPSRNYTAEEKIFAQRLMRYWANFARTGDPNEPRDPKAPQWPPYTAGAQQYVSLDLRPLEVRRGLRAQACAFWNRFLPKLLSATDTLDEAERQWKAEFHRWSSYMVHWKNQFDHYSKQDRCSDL
Test: Inhibition of human recombinant AchE using acetylthiocholine iodide as substrate at 250 uM by Ellman method
The source made the active and inactive calls. The rule behind the calls is not given here.
EXPERIMENTAL_ENDPOINT: inhibition

• C=CC[C@@H]1[C@H](O)[C@@H](O)[C@H](O)CN1CCCCCCCC = < 50%
• CCCCCCCCN1C[C@@H](O)[C@H](O)[C@@H](O)[C@H]1CCC = inactive
• CCCCCC[C@H]1NC[C@@H](O)[C@H](O)[C@H]1O = inactive
